Entry source: ChEMBL document CHEMBL3124745

# procedure_text: Metabolic stability in rat liver microsomes assessed as compound remaining measured at 10 mins
# Format: ADME
# experimental_setup: read-out: Stability
Answer each item with its documented remaining at 10 min.

## Input Can you share its remaining at 10 min? I mean this molecule: CCOCCn1cc(-c2ccc(N3CCC(N4CCc5ccc(F)cc54)CC3)nn2)cn1
## Output < 50%

State recorded remaining at 10 min for all listed molecules.
1. CCCn1cc(-c2ccc(N3CCC(N4CCc5ccc(F)cc54)CC3)nn2)cn1
2. CCOc1cnn(-c2ccc(N3CCC(N4CCc5ccc(F)cc54)CC3)nn2)c1

## Output
["< 50%", "< 50%"]

###

# assayed_target: Acyl-CoA desaturase 1 (Rattus norvegicus)
# Sequence (P07308 whole entry): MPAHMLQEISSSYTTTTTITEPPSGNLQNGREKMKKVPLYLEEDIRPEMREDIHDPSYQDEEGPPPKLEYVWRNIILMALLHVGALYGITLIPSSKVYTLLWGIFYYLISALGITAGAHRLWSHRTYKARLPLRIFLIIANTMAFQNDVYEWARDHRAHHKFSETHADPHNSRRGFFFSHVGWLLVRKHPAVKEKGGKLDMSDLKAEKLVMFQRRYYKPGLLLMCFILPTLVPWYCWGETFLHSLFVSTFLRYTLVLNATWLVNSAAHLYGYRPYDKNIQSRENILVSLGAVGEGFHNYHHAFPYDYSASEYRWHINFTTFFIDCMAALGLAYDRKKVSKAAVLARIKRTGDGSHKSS
endpoint: pIC50
Answers are plain numbers, as −log10 of the molar value.

## Input Can you share its pIC50? I mean this molecule: Cc1ccc(-c2ccc(N3CCC(N4CCc5ccc(F)cc54)CC3)nn2)cn1
## Output 7.89

###

# procedure_text: Oral bioavailability in Sprague-Dawley rat at 10 mg/kg
# Assay type: ADME, organism-based
# experimental_setup: in vivo
endpoint: bioavailability

## Input Can you share its bioavailability? I mean this molecule: Cn1cc(-c2ccc(N3CCC(N4CCc5ccc(F)cc54)CC3)nn2)cn1
## Output 105%

###

# procedure_text: Volume of distribution in Sprague-Dawley rat at 2 mg/kg, iv
# Format: ADME, organism-based
# Set-up: dose 2 mg/kg, route intravenous
# experimental_setup: in vivo
endpoint: Vd (L/kg)
One number for each entry, in L/kg.

## Input Can you share its Vd? I mean this compound: Cn1cc(-c2ccc(N3CCC(N4CCc5ccc(F)cc54)CC3)nn2)cn1
## Output 0.52

###

# procedure_text: Cmax in Sprague-Dawley rat at 10 mg/kg, po
# Assay type: ADME, organism-based
# Parameters: dose 10 mg/kg, route oral
# experimental_setup: in vivo
endpoint: Cmax (ng/mL)
Answers are plain numbers, in ng/mL.

## Input Can you share its Cmax? I mean this molecule: Cn1cc(-c2ccc(N3CCC(N4CCc5ccc(F)cc54)CC3)nn2)cn1
## Output 4400

###

# procedure_text: Clearance in Sprague-Dawley rat at 2 mg/kg, iv
# Format: ADME, organism-based
# Set-up: dose 2 mg/kg, route intravenous
# experimental_setup: in vivo
endpoint: clearance (mL/min/kg)
One number for each entry, in mL/min/kg.

## Input Can you share its clearance? I mean this compound: Cn1cc(-c2ccc(N3CCC(N4CCc5ccc(F)cc54)CC3)nn2)cn1
## Output 3.3

###

# procedure_text: Metabolic stability in human liver microsomes assessed as compound remaining measured at 10 mins
# Assay type: ADME
# experimental_setup: read-out: Stability
endpoint: remaining at 10 min

## Input Can you share its remaining at 10 min? I mean this compound: CCCn1cc(-c2ccc(N3CCC(N4CCc5ccc(F)cc54)CC3)nn2)cn1
## Output < 50%

## Input Lookup CCOCCn1cc(-c2ccc(N3CCC(N4CCc5ccc(F)cc54)CC3)nn2)cn1
## Output < 50%

Would you kindly look at the next entry?
## Input Can you share its remaining at 10 min? I mean this compound: CCOc1cnn(-c2ccc(N3CCC(N4CCc5ccc(F)cc54)CC3)nn2)c1
## Output < 50%

###

# procedure_text: AUC (24 hrs) in Sprague-Dawley rat at 10 mg/kg, po
# Type: ADME, organism-based
# Set-up: time < 24 hr, dose 10 mg/kg, route oral
# experimental_setup: plasma
endpoint: AUC at 24 h (ng·h/mL)
Give bare numbers, in ng·h/mL.

## Input Can you share its AUC at 24 h? I mean this compound: Cn1cc(-c2ccc(N3CCC(N4CCc5ccc(F)cc54)CC3)nn2)cn1
## Output 38800

###

# assayed_target: Stearoyl-CoA desaturase (Homo sapiens)
# Sequence (O00767 whole entry): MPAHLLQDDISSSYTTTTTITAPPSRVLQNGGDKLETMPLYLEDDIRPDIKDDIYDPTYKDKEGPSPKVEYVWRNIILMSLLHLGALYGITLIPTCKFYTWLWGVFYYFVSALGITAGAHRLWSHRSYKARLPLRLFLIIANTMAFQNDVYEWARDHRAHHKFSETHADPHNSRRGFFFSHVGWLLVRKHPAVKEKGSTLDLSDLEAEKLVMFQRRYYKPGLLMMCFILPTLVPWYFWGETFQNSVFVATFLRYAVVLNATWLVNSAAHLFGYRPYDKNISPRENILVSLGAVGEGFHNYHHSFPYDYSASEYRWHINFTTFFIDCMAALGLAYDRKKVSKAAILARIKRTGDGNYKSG
# procedure_text: Inhibition of SCD1 in human A431 cells assessed as [13C]-palmitic acid conversion to [13C]-palmitoleic acid after 4 hrs by LC/MS analysis
Flag rule - IC50 less than 0.03 µM flags condition met; the remaining entries get condition not met.

## Input Please state whether IC50 is below 0.03 µM for Cc1cnc(-c2ccc(N3CCC(N4CCc5ccc(F)cc54)CC3)nn2)s1
## Output condition met

## Input Lookup Cn1cc(-c2ccc(N3CCC(n4ncc5ccc(F)cc54)CC3)nn2)cn1
## Output condition not met

## Input Lookup Cc1ccc(-c2ccc(N3CCC(N4CCc5ccc(F)cc54)CC3)nn2)cc1
## Output condition met

## Input Lookup CCOc1cnn(-c2ccc(N3CCC(N4CCc5ccc(F)cc54)CC3)nn2)c1
## Output condition met

Consider the record given below.
## Input Please state whether IC50 is below 0.03 µM for OCc1cnn(-c2ccc(N3CCC(N4CCc5ccc(F)cc54)CC3)nn2)c1
## Output condition met

###

# procedure_text: AUC (24 hrs) in Zucker fa/fa rat at 10 mg/kg, po
# Assay type: ADME, organism-based
# Design: time < 24 hr, dose 10 mg/kg, route oral
# experimental_setup: plasma
endpoint: AUC at 24 h (ng·h/mL)
Answers are plain numbers, in ng·h/mL.

## Input Can you share its AUC at 24 h? I mean this compound: Cn1cc(-c2ccc(N3CCC(N4CCc5ccc(F)cc54)CC3)nn2)cn1
## Output 10800
